# System: SNB-75 CNS
# experiment-notes: NCI tumour cell line growth inhibition, 48 h; in the data active = GI50 below about 0.43 µM; inactive = the rest
Hi! Could you answer with just one of these? label 1 = active, label 0 = inactive

Here's what some known entries look like.
CCCCCCNC(=O)Oc1ccc(/C(=C(/C)Cc2ccc(OC)cc2)c2ccc(OCCN(C)C)cc2)cc1 = label 0
CC(=O)c1cc(-c2ccccc2N)n(-c2ccc3c(c2)OCO3)c1C = label 1
CC(=O)c1cccc(-c2cccc(-c3ccn(CCN4CCOCC4)n3)c2)c1 = label 0

Can you look up the reported call for `O=C(Nc1ccc(Br)cc1)Nc1nn(C(=O)Nc2ccc(Br)cc2)c2ccccc12` for me? label 0

Item: `COC(=O)c1cc(-c2ccc(OC)cc2)[nH]c1N/N=C/c1c(Cl)cccc1Cl` label 1

Origin of values: PubChem BioAssay (NCI)
